pIC50: −log10 of the molar value.
The compounds below have reported pIC50 for DGKζ (Homo sapiens (Human)).
measuredEndpoint: pIC50

Worked examples follow.
INPUT: Form field: reported pIC50 of CCc1nc2cc(C(C)N3C[C@H](CC)N(c4cc(=O)n(C)c5cn(CC#N)nc45)C[C@H]3CC)ccc2s1 (stereo partly shown) [Compound A109]
OUTPUT: 7.74

INPUT: So what's the measured pIC50 for this one? CC[C@H]1CN(C(C)c2ccc(OC(F)F)cc2)[C@H](CC)CN1c1cc(=O)n(C)c2cn(CC#N)nc12 (single isomer, unassigned) [Compound A19b]
OUTPUT: 5.31

INPUT: Form field: reported pIC50 of CC[C@H]1CN(C(C)c2cc(F)c3ncsc3c2)[C@H](CC)CN1c1cc(=O)n(C)c2cn(CC#N)nc12 (single isomer, unassigned) [Compound A101b]
OUTPUT: 5.91

a: CC[C@H]1CN(C(C)c2cn3ncccc3n2)[C@H](CC)CN1c1cc(=O)n(C)c2cn(CC#N)nc12 (stereo partly shown) [Compound A180]
b: CC[C@H]1CN(C(C)c2ccc3cc(C(F)F)sc3n2)[C@H](CC)CN1c1cc(=O)n(C)c2cn(CC#N)nc12 (single isomer, unassigned) [Compound A144b]
c: CC[C@H]1CN(C(C)c2ccc(C3CC3)nc2)[C@H](CC)CN1c1nc(=O)n(C)c2cn(CC#N)nc12 (single isomer, unassigned) [Compound A127b]
INPUT: Provide the items ranked by increasing pIC50. Provide your answer as the labels ordered per the instruction.
OUTPUT: c, a, b

A: CC#CCn1cc2c(n1)c(N1C[C@@H](CC)N(C(C)c3cnc4ccccc4n3)C[C@@H]1CC)cc(=O)n2C (single isomer, unassigned) [Compound A206a]
B: CC[C@H]1CN(C(C)c2ccc(COC)nc2)[C@H](CC)CN1c1cc(=O)n(C)c2cn(CC#N)nc12 (single isomer, unassigned) [Compound A42a]
C: CC[C@H]1CN(C(C)c2cnc(C3CC3)cc2F)[C@H](CC)CN1c1cc(=O)n(C)c2cn(CC#N)nc12 (single isomer, unassigned) [Compound A47a]
D: CC#CCn1cc2c(n1)c(N1C[C@@H](CC)N(C(C)c3ccc4sc(C)nc4c3F)C[C@@H]1CC)cc(=O)n2C (single isomer, unassigned) [Compound A141b]
E: CC[C@H]1CN(C(C)c2ccc(OC3COC3)c(F)c2)[C@H](CC)CN1c1cc(=O)n(C)c2cn(CC#N)nc12 (single isomer, unassigned) [Compound A23a]
INPUT: Ordering: ascending pIC50. List the labels according to the requested ordering.
OUTPUT: A, E, D, B, C
(A: 5.08, E: 5.43, D: 6.19, B: 6.50, C: 7.06)

1: CC[C@H]1CN(C(C)c2ccc(C(=O)N3CCC(OC)CC3)cc2)[C@H](CC)CN1c1cc(=O)n(C)c2cn(CC#N)nc12 (single isomer, unassigned) [Compound A194b]
2: CC[C@H]1CN(C(C)c2cc3sc(C)nc3cc2F)[C@H](CC)CN1c1nc(=O)n(C)c2cn(CC#N)nc12 (single isomer, unassigned) [Compound A128a]
INPUT: pIC50 comparison. Which is larger, 1 or 2 ? Reply briefly: the label of your chosen item.
OUTPUT: 2
(2: 7.22, 1: 5.22)

1: CC[C@H]1CN(C(C)c2ccc3nsnc3c2)[C@H](CC)CN1c1cc(=O)n(C)c2cn(CC#N)nc12 (single isomer, unassigned) [Compound A106b]
2: CC[C@H]1CN(C(C)c2ccc(COC)nc2)[C@H](CC)CN1c1cc(=O)n(C)c2cn(CC#N)nc12 (single isomer, unassigned) [Compound A42b]
3: CC[C@H]1CN(C(C)c2ccc3ncoc3c2)[C@H](CC)CN1c1cc(=O)n(C)c2cn(CC#N)nc12 (single isomer, unassigned) [Compound A84b]
4: CC[C@H]1CN(C(C)c2ccc3ncc(Cl)n3n2)[C@H](CC)CN1c1cc(=O)n(C)c2cn(CC#N)nc12 (single isomer, unassigned) [Compound A167b]
INPUT: Put the items in order so that reported pIC50 rises from first to last. List the labels, following the order given in the request.
OUTPUT: 2, 3, 1, 4

====

subjectOfTest: DGKζ (Homo sapiens (Human), UniProt Q13574)
Sequence (Q13574 other isoform, or with tags, fused parts or gaps): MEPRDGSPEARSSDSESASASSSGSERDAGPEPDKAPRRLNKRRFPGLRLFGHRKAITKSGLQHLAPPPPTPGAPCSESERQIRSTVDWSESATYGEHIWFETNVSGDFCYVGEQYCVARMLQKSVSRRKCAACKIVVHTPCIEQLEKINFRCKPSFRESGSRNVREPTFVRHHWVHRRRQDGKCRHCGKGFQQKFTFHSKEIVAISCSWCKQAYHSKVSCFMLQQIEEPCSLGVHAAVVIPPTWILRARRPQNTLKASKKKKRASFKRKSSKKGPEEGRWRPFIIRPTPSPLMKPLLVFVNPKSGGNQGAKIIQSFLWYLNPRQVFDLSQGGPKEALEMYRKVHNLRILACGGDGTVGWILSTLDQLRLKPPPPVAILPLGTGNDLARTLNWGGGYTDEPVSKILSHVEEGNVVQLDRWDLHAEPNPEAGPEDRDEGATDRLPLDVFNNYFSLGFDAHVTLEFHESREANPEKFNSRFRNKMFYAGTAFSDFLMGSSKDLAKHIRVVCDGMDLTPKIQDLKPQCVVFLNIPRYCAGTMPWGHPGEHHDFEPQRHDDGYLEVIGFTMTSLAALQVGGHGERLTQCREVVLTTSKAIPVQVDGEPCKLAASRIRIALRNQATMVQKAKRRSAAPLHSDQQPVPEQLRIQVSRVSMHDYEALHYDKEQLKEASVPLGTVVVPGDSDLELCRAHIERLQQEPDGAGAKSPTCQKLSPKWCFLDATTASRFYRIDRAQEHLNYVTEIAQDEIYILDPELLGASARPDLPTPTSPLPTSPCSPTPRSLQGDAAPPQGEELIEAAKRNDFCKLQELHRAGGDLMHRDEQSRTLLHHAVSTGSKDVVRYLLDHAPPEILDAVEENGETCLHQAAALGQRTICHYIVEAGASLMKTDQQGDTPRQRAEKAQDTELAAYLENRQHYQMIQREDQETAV
measuredEndpoint: IC50 (µM)

a: Cc1cc2nc(C(C)N3C[C@H](C)N(c4cc(=O)n(C)c5cn(CC#N)nc45)C[C@H]3C)ccc2s1 (single isomer, unassigned) [Compound A155b]
b: CC[C@H]1CN(C(C)c2ccc(C(C)(C)F)nc2)[C@H](CC)CN1c1cc(=O)n(C)c2cn(CC#N)nc12 (single isomer, unassigned) [Compound A46b]
c: CC[C@H]1CN(C(C)c2ccc(OC)cc2)[C@H](CC)CN1c1cc(=O)n(C)c2cn(CC#N)nc12 (single isomer, unassigned) [Compound A34a]
d: CC#CCn1cc2c(n1)c(N1C[C@@H](CC)N(C(C)c3ccc4nc(C)sc4c3)C[C@@H]1C)cc(=O)n2C (single isomer, unassigned) [Compound A115b]
e: CC[C@H]1CN(C(C)c2cnc3ncsc3c2)[C@H](CC)CN1c1cc(=O)n(C)c2cn(CC#N)nc12 (single isomer, unassigned) [Compound A98a]
INPUT: // rank the listed molecules by IC50, lowest value first // respond by listing labels in the order requested
OUTPUT: c, e, b, a, d
(c: 0.075 µM, e: 0.108 µM, b: 0.396 µM, a: 1.97 µM, d: 6.49 µM)

====

subjectOfTest: DGKζ (Homo sapiens (Human), UniProt Q13574)
pIC50: −log10 of the molar value.
measuredEndpoint: pIC50

INPUT: # query: pIC50 of entry CC[C@H]1CN(C(C)c2ccn3ncc(F)c3n2)[C@H](CC)CN1c1nc(=O)n(C)c2cn(CC#N)nc12 (single isomer, unassigned) [Compound A164b]
OUTPUT: 7.06

INPUT: # input compound: CC[C@H]1CN(C(C)c2ccc(C(=O)NC)cc2)[C@H](CC)CN1c1cc(=O)n(C)c2cn(CC#N)nc12 (single isomer, unassigned) [Compound A193a] ; wanted: its pIC50
OUTPUT: 5.54

1: CC[C@H]1CN(C(C)c2ccc(C#N)cc2)[C@H](CC)CN1c1cc(=O)n(C)c2cn(CC#N)nc12 (stereo partly drawn) [Compound A191]
2: CC#CCn1cc2c(n1)c(N1C[C@@H](CC)N(C(C)c3nc4ccccc4nc3C)C[C@@H]1C)cc(=O)n2C (single isomer, unassigned) [Compound A111b]
3: CC[C@H]1CN(C(C)c2ccn3nc(F)cc3n2)[C@H](CC)CN1c1cc(=O)n(C)c2cn(CC#N)nc12 (single isomer, unassigned) [Compound A158b]
4: CC[C@H]1CN(C(C)c2ccn3ncc(C)c3n2)[C@H](CC)CN1c1cc(=O)n(C)c2cn(CC#N)nc12 (single isomer, unassigned) [Compound A151a]
INPUT: Place the items in sequence of falling pIC50. A complete answer lists every label in the requested sequence.
OUTPUT: 2, 3, 1, 4
(2: 7.26, 3: 7.04, 1: 6.55, 4: 5.34)

P: CC#CCn1cc2c(n1)c(N1C[C@@H](CC)N(C(C)c3ccc4nc(C)sc4c3)C[C@@H]1CC)cc(=O)n2C (single isomer, unassigned) [Compound A114a]
Q: CC[C@H]1CN(C(C)c2ccc(CN3CCS(=O)(=O)CC3)cc2)[C@H](CC)CN1c1cc(=O)n(C)c2cn(CC#N)nc12 (stereo partly drawn) [Compound A192]
INPUT: Pick one: P or Q . Which has the bigger pIC50 number? Label of pick, please.
OUTPUT: P
(P: 7.08, Q: 6.24)

1: CC[C@H]1CN(C(C)c2cc(F)c(CN3CCS(=O)(=O)CC3)c(F)c2)[C@H](CC)CN1c1cc(=O)n(C)c2cn(CC#N)nc12 (stereo partly drawn) [Compound A5]
2: CC#CCn1cc2c(n1)c(N1C[C@@H](CC)N(C(C)c3ccc4sc(C)nc4c3F)C[C@@H]1CC)cc(=O)n2C (single isomer, unassigned) [Compound A141a]
3: CC[C@H]1CN(C(C)c2ccc3nsnc3c2)[C@H](CC)CN1c1cc(=O)n(C)c2cn(CC#N)nc12 (single isomer, unassigned) [Compound A106a]
4: CC(c1cc2c(cc1F)OCC(C)(C)O2)N1C[C@H](C)N(c2cc(=O)n(C)c3cn(CC#N)nc23)C[C@H]1C (single isomer, unassigned) [Compound A179b]
INPUT: Order the items by recorded pIC50; the first position goes to the largest value. API: response body holds the labels in the requested order.
OUTPUT: 3, 2, 1, 4
(3: 8.05, 2: 7.75, 1: 7.14, 4: 6.49)

a: CC[C@H]1CN(C(C)c2ccc(OC)cc2F)[C@H](CC)CN1c1cc(=O)n(C)c2cn(CC#N)nc12 (stereo partly drawn) [Compound A12]
b: CC[C@H]1CN(C(C)c2ccn3ncc(F)c3c2)[C@H](CC)CN1c1cc(=O)n(C)c2cn(CC#N)nc12 (single isomer, unassigned) [Compound A165a]
INPUT: Hi! Which is lower in terms of pIC50, the first one a or the second one b ? Output the label that corresponds to your choice.
OUTPUT: a
(a: 7.04, b: 7.92)

Origin of the recorded values: patent US20250346597A1
